Provide the recorded EC50 for the entries that follow.
biological target: human TLR3 extracellular domain (amino acids 1-703) with C-terminal poly-histidine tag (human); assay: ELISA, coated huTLR3 ECD
Lab book: enter the figure in µg/mL, no units written.

Query :: State its EC50: mAb 6 (antibody, V domains shown) VH: QVELQQSGPGLVKPSQTLSLTCAISGDSVSTRSAAWGWIRQSPGRGLEWLGRIYMRSKWYNDYAVSVKSRITINPDTSKNQFSLQLNSVTPEDTAVYYCARHTYPYLSFDVWGQGTLVTVSS VL: DIELTQPPSVSVAPGQTARISCSGDALGGYFVSWYQQKPGQAPVLVIYDDDNRPSGIPERFSGSNSGNTATLTISGTQAEDEADYYCGSYDSNSLTVFGGGTKLTVL
Result :: 0.019

Query :: State its EC50: mAb 8 (antibody, V domains shown) VH: QVELQQSGPGLVKPSQTLSLTCAISGDSVSSNSAAWGWIRQSPGRGLEWLGIIQTRSKWYNDYAVSVKSRITINPDTSKNQFSLQLNSVTPEDTAVYYCARYSYPFYSIDYWGQGTLVTVSS VL: DIELTQPPSVSVAPGQTARISCSGDNIGSYYVHWYQQKPGQAPVLVIYEDSERPSGIPERFSGSNSGNTATLTISGTQAEDEADYYCQSYDSQFSFGVFGGGTKLTVL
Result :: 0.0186

Query :: State its EC50: mAb 18 (antibody, V domains shown) VH: QVELQQSGPGLVKPSQTLSLTCAISGDSVSSNSAAWGWIRQSPGRGLEWLGIIQKRSKWYNNYAVSVKSRITINPDTSKNQFSLQLNSVTPEDTAVYYCARYSYPFYSIDYWGQGTLVTVSS VL: DIELTQPPSVSVAPGQTARISCSGDNIGSYYVHWYQQKPGQAPVLVIYEDSERPSGIPERFSGSNSGNTATLTISGTQAEDEADYYCQSYDSQFSFGVFGGGTKLTVL
Result :: 0.00968

Query :: State its EC50: mAb 7 (antibody, V domains shown) VH: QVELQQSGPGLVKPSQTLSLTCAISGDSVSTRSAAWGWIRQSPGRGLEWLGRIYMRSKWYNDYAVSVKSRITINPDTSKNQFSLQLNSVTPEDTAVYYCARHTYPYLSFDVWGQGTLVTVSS VL: DIELTQPPSVSVAPGQTARISCSGDALGGYFVSWYQQKPGQAPVLVIYDDDNRPSGIPERFSGSNSGNTATLTISGTQAEDEADYYCSSYDSDSLTVFGGGTKLTVL
Result :: 0.0161

Reference source: patent US9932404B2
